Would you mind telling me the reported MIC of each entry?
System: fluoroquinolone-resistant S. aureus ATCC 700699
experimentalDetails: Minimum inhibitory concentration (MIC) assay, broth microdilution, MRSA
Type: cell-based
assayContext: Staphylococcus aureus; fluoroquinolone-resistant S. aureus ATCC 700699; Table I; read-out: MRSA MIC
Provide only the numeric value, understood in µg/mL.

stdin: Which MIC is listed for CO/N=C1\CN(c2c(F)cc3c(=O)c4c(O)c(C#N)sc4n(C4CC4)c3c2OC)CC1CN (centres unmarked) ?
stdout: 1

stdin: Which MIC is listed for COc1c(N2CCNCC2)c(F)cc2c(=O)c3c(O)c(C(=O)C(C)(C)C)sc3n(C3CC3)c12 ?
stdout: 8

stdin: Which MIC is listed for COc1c(N2CC[C@@H]([C@H](C)NCCF)C2)c(F)cc2c(=O)c3c(O)c(C#N)sc3n(C3CC3)c12 ?
stdout: 0.13

stdin: Which MIC is listed for COc1c(N2CC[C@@H](C(C)(C)N(C)C)C2)c(F)cc2c(=O)c3c(O)c(C#N)sc3n(C3CC3)c12 ?
stdout: 2

stdin: Which MIC is listed for COc1c(N2CCCC(CN)C2)c(F)cc2c(=O)c3c(O)c(C#N)sc3n(C3CC3)c12 (centres unmarked) ?
stdout: 0.13

stdin: Which MIC is listed for COC(=O)c1sc2c(c1O)c(=O)c1cc(F)c(N3CCNCC3)c(OC)c1n2C1CC1 ?
stdout: 32

stdin: Which MIC is listed for COc1c(N2CCC[C@H](N)C2)c(F)cc2c(=O)c3c(O)c(C#N)sc3n(C3CC3)c12 ?
stdout: 0.5

stdin: Which MIC is listed for COc1c(N2CCC(C(F)(F)F)CC2)c(F)cc2c(=O)c3c(n(C4CC4)c12)SC(C#N)C3=O (centres unmarked) ?
stdout: 8

stdin: Which MIC is listed for COc1c(N2CCNCC2)ccc2c(=O)c3c(O)c(C#N)sc3n(C3CC3)c12 ?
stdout: 4

stdin: Which MIC is listed for COc1c(N2CCN(CC#N)CC2)c(F)cc2c(=O)c3c(O)c(C#N)sc3n(C3CC3)c12 ?
stdout: 0.5

stdin: Which MIC is listed for COc1c(N2CCNCC2)c(F)cc2c(=O)c3c(O)c(-c4ccc(F)c(F)c4)sc3n(C3CC3)c12 ?
stdout: 4

stdin: Which MIC is listed for COc1c(N2C[C@H]3CNC[C@H]3C2)c(F)cc2c(=O)c3c(O)c(C#N)sc3n(C3CC3)c12 ?
stdout: 1

stdin: Which MIC is listed for N#Cc1sc2c(c1O)c(=O)c1cc(F)c(N3CCNCC3)cc1n2C1CC1 ?
stdout: 2

stdin: Which MIC is listed for COc1c(C2=CCNCC2)c(F)cc2c(=O)c3c(O)c(C#N)sc3n(C3CC3)c12 ?
stdout: 4

stdin: Which MIC is listed for COc1c(N2C[C@@H]3CCCN[C@@H]3C2)c(F)cc2c(=O)c3c(O)c(C#N)sc3n(C3CC3)c12 ?
stdout: 8

stdin: Which MIC is listed for CCNC(C)(C)[C@@H]1CCN(c2c(F)cc3c(=O)c4c(O)c(C#N)sc4n(C4CC4)c3c2OC)C1 ?
stdout: 0.5

stdin: Which MIC is listed for COc1c(N2CC[C@@H](C(C)(C)N)C2)c(F)cc2c(=O)c3c(O)c(C(C)=O)sc3n(C3CC3)c12 ?
stdout: 0.25

stdin: Which MIC is listed for C[C@H]1COc2c(N3CCNCC3)c(F)cc3c(=O)c4c(n1c23)SC(C#N)C4=O (some centres unmarked) ?
stdout: 4

stdin: Which MIC is listed for COc1c(N2CCC(c3ncn[nH]3)CC2)c(F)cc2c(=O)c3c(n(C4CC4)c12)SC(C#N)C3=O (centres unmarked) ?
stdout: 0.25

stdin: Which MIC is listed for COc1c(-c2ccnc(C)c2)c(F)cc2c(=O)c3c(O)c(C#N)sc3n(C3CC3)c12 ?
stdout: 0.13

stdin: Which MIC is listed for COc1c(-c2ccnc(N3CCNCC3)c2)c(F)cc2c(=O)c3c(n(C4CC4)c12)SC(C#N)C3=O (centres unmarked) ?
stdout: 1

stdin: Which MIC is listed for COc1c(N2CC[C@@H](C(C)(C)N)C2)c(F)cc2c(=O)c3c(O)csc3n(C3CC3)c12 ?
stdout: 32

stdin: Which MIC is listed for COc1c(N2CCC(C(N)=O)CC2)c(F)cc2c(=O)c3c(n(C4CC4)c12)SC(C#N)C3=O (centres unmarked) ?
stdout: 0.5

stdin: Which MIC is listed for COc1c(N2CCNCC2)c(F)cc2c(=O)c3c(O)c(C(N)=O)sc3n(C3CC3)c12 ?
stdout: 2

stdin: Which MIC is listed for COc1c(N2CCCC(=C(F)CN)C2)c(F)cc2c(=O)c3c(O)c(C(C)=O)sc3n(C3CC3)c12 ?
stdout: 0.5

stdin: Which MIC is listed for CNC(C)(C)[C@@H]1CCN(c2c(F)cc3c(=O)c4c(O)c(C#N)sc4n(C4CC4)c3c2OC)C1 ?
stdout: 0.5

stdin: Which MIC is listed for COc1c(N2CC[C@@H](c3ncn[nH]3)C2)c(F)cc2c(=O)c3c(n(C4CC4)c12)SC(C#N)C3=O (some centres unmarked) ?
stdout: 0.13

stdin: Which MIC is listed for COc1c(N2CC[C@@H](C(C)(C)NCCC#N)C2)c(F)cc2c(=O)c3c(n(C4CC4)c12)SC(C#N)C3=O (some centres unmarked) ?
stdout: 0.5

stdin: Which MIC is listed for COc1c(N2CCCC(c3ncn[nH]3)C2)c(F)cc2c(=O)c3c(n(C4CC4)c12)SC(C#N)C3=O (centres unmarked) ?
stdout: 2

stdin: Which MIC is listed for COc1c(N2CCC(N)CC2)c(F)cc2c(=O)c3c(O)c(C#N)sc3n(C3CC3)c12 ?
stdout: 0.5

# credit: patent US8173636B2
